Tested on: HS 578T breast
Assay: NCI-60 one-dose screen, 48 h
Conditions: 10 µM unless noted
This is part of a sample that, as a whole, favours compounds with a hit. Of some 83,000 tested, about 20% had one in any assay. Active and inactive are the calls of the source. Rule for the calls: active = growth percent below 10; inactive = the rest.
Possible outcomes: class 1 for active, class 0 for inactive

[
  {
    "compound": "Cc1ccc(/C=C(/C#N)n2nnc3ncccc32)cc1",
    "measurement-target": "HS 578T breast",
    "label-class": "class 1"
  },
  {
    "compound": "O=C1OC(Oc2ccccc2)(c2ccccc2)c2ccccc21 (stereo not drawn)",
    "measurement-target": "HS 578T breast",
    "label-class": "class 0"
  },
  {
    "compound": "O=C(COc1ccc(/C=C2\\Oc3ccc4ccccc4c3C2=O)cc1)c1ccc(Cl)cc1",
    "measurement-target": "HS 578T breast",
    "label-class": "class 0"
  },
  {
    "compound": "COc1ccc(C2CC(c3ccc(Nc4ccnc5cc(Cl)ccc45)cc3)=NN2C(C)=O)cc1 (stereo not drawn)",
    "measurement-target": "HS 578T breast",
    "label-class": "class 0"
  },
  {
    "compound": "COc1cc(/C=C/C(=O)c2c(C)n([O-])c3ccc(Cl)cc3[n+]2=O)cc(OC)c1OC",
    "measurement-target": "HS 578T breast",
    "label-class": "class 0"
  },
  {
    "compound": "COc1ccc(NC(=O)c2ccccc2-c2ccccc2)c(C(N)=O)c1",
    "measurement-target": "HS 578T breast",
    "label-class": "class 0"
  },
  {
    "compound": "CC[N+](CCCCCCCCCC[N+](CC)(c1ccccn1)c1ccccn1)(c1ccccn1)c1ccccn1",
    "measurement-target": "HS 578T breast",
    "label-class": "class 0"
  },
  {
    "compound": "Cc1ccc(S(=O)(=O)NCCN2c3nc4ccccc4cc3Sc3cc4ccccc4nc32)cc1",
    "measurement-target": "HS 578T breast",
    "label-class": "class 0"
  },
  {
    "compound": "CCN(CC)c1ccc(/C=C/C(=O)c2cccc(NS(C)(=O)=O)c2)cc1",
    "measurement-target": "HS 578T breast",
    "label-class": "class 0"
  },
  {
    "compound": "C#C[C@]1(O)CCC2C3CCc4cc(O)ccc4C3CC[C@@]21C (stereo partly drawn)",
    "measurement-target": "HS 578T breast",
    "label-class": "class 1"
  },
  {
    "compound": "Cc1cc2ccccn2c1C(=O)c1ccc(C(=O)c2ccccc2)cc1",
    "measurement-target": "HS 578T breast",
    "label-class": "class 0"
  },
  {
    "compound": "N#Cc1c(-c2ccc(F)cc2)n2c(nc1=O)SC(=O)C2=O",
    "measurement-target": "HS 578T breast",
    "label-class": "class 0"
  },
  {
    "compound": "C[C@H]1O[C@@H](O[C@H]2[C@@H](O)C[C@H](O[C@H]3[C@@H](O)C[C@H](O[C@H]4CC[C@]5(C)C6CC[C@]7(C)[C@@H](C8=CC(=O)OC8)CC[C@]7(O)C6CC[C@@H]5C4)O[C@@H]3C)O[C@@H]2C)C[C@H](O)[C@@H]1O (stereo partly drawn)",
    "measurement-target": "HS 578T breast",
    "label-class": "class 1"
  },
  {
    "compound": "COc1ccc(C(=O)/C=C/c2ccc(C)cc2)cc1OC",
    "measurement-target": "HS 578T breast",
    "label-class": "class 0"
  },
  {
    "compound": "C(=C1c2ccccc2-c2ccccc21)c1ccccn1",
    "measurement-target": "HS 578T breast",
    "label-class": "class 0"
  },
  {
    "compound": "Cc1cc(Br)c(C)cc1Br",
    "measurement-target": "HS 578T breast",
    "label-class": "class 0"
  },
  {
    "compound": "O=C(Nc1ccccc1S)c1ccccc1",
    "measurement-target": "HS 578T breast",
    "label-class": "class 0"
  },
  {
    "compound": "N#CC(C#N)C(C#N)C#N",
    "measurement-target": "HS 578T breast",
    "label-class": "class 0"
  },
  {
    "compound": "COc1ccc2c(c1)sc1nc(-c3ccc(Br)cc3)cn12",
    "measurement-target": "HS 578T breast",
    "label-class": "class 0"
  },
  {
    "compound": "CCN(Cc1cccc(S(=O)(=O)[O-])c1)c1ccc(C(=C2C=CC(=[N+](CC)Cc3cccc(S(=O)(=O)O)c3)C=C2)c2ccccc2S(=O)(=O)O)cc1",
    "measurement-target": "HS 578T breast",
    "label-class": "class 0"
  },
  {
    "compound": "Oc1ccccc1/C=N/N1CCCCCC1",
    "measurement-target": "HS 578T breast",
    "label-class": "class 0"
  },
  {
    "compound": "N#CC1c2ccccc2C=CN1C(=O)N(c1ccccc1)c1ccccc1 (stereo not drawn)",
    "measurement-target": "HS 578T breast",
    "label-class": "class 0"
  },
  {
    "compound": "COc1ccc(-c2nc3sc4c(c3c(=O)[nH]2)CCCCCC4)cc1",
    "measurement-target": "HS 578T breast",
    "label-class": "class 0"
  },
  {
    "compound": "COc1cc2c(cc1OC)C(CC1(O)CCCCC1)N(S(=O)(=O)c1ccc(C)cc1)CC2 (stereo not drawn)",
    "measurement-target": "HS 578T breast",
    "label-class": "class 0"
  },
  {
    "compound": "COc1cc(/C=C/c2cc(/C=C/c3ccc(O)c(OC)c3)n(C(=O)Cc3ccccc3)n2)ccc1O",
    "measurement-target": "HS 578T breast",
    "label-class": "class 1"
  },
  {
    "compound": "C=CCN(/C=C/CN(CC=C)CC=C)CC=C",
    "measurement-target": "HS 578T breast",
    "label-class": "class 0"
  },
  {
    "compound": "CCCCCCCCN(CCO)CCCCCCCC",
    "measurement-target": "HS 578T breast",
    "label-class": "class 0"
  },
  {
    "compound": "CC1C(=O)NC2=Nc3ccccc3C(=O)NN21 (stereo not drawn)",
    "measurement-target": "HS 578T breast",
    "label-class": "class 0"
  },
  {
    "compound": "COc1c(Br)cc(C(c2cc(Br)c(OC)c(Br)c2)c2ccccc2C(=O)O)cc1Br",
    "measurement-target": "HS 578T breast",
    "label-class": "class 0"
  },
  {
    "compound": "CCOC1Oc2ccccc2C(=O)/C1=N/c1nccs1 (stereo not drawn)",
    "measurement-target": "HS 578T breast",
    "label-class": "class 0"
  },
  {
    "compound": "O=C(/C=C/c1cccc(O)c1)c1cccc(-n2cc(-c3ccccc3)[nH]c2=O)c1",
    "measurement-target": "HS 578T breast",
    "label-class": "class 0"
  },
  {
    "compound": "COc1ccc(CNC(=O)c2c(C)n([O-])c3cc(F)c(F)cc3[n+]2=O)cc1",
    "measurement-target": "HS 578T breast",
    "label-class": "class 0"
  },
  {
    "compound": "CC1=C([Se]CC(OC(=O)[C@@H](CSSC(C)(C)C)NC(=O)C(C)(C)C)C(=O)NCCCCCC(=O)OCc2ccccc2)C(=O)c2ccccc2C1=O (stereo partly drawn)",
    "measurement-target": "HS 578T breast",
    "label-class": "class 0"
  },
  {
    "compound": "C/C(=C\\CCc1ccoc1)CC/C=C(\\C)CCCNc1ccc(F)cc1",
    "measurement-target": "HS 578T breast",
    "label-class": "class 0"
  },
  {
    "compound": "Cc1ccc(OCC(=O)Nc2ccc(Oc3ccccc3)cc2)c([N+](=O)[O-])n1",
    "measurement-target": "HS 578T breast",
    "label-class": "class 0"
  },
  {
    "compound": "O=C1N=C(N2CCOCC2)S/C1=C\\c1cn(-c2ccccc2)nc1-c1ccccc1",
    "measurement-target": "HS 578T breast",
    "label-class": "class 0"
  },
  {
    "compound": "Cc1ccc(C(=O)Cc2ccccc2)c(O)c1",
    "measurement-target": "HS 578T breast",
    "label-class": "class 0"
  },
  {
    "compound": "CC(NC(N)=S)c1ccccc1 (stereo not drawn)",
    "measurement-target": "HS 578T breast",
    "label-class": "class 0"
  },
  {
    "compound": "CC(C)Sc1nc(-c2ccc(Br)cc2)c(C#N)c(N2CCCCC2)n1",
    "measurement-target": "HS 578T breast",
    "label-class": "class 0"
  },
  {
    "compound": "CCCn1c(N)c(C(=O)CNc2ccc(I)cc2)c(=O)[nH]c1=O",
    "measurement-target": "HS 578T breast",
    "label-class": "class 0"
  },
  {
    "compound": "N#Cc1c(-c2ccccc2)cc(-c2ccccc2)n(CCCCC(=O)O)c1=O",
    "measurement-target": "HS 578T breast",
    "label-class": "class 0"
  },
  {
    "compound": "NC(=O)c1cc(Cl)ccc1NC(=O)c1ccccc1-c1ccccc1",
    "measurement-target": "HS 578T breast",
    "label-class": "class 0"
  },
  {
    "compound": "O=C(CSc1ncc(-c2ccccc2)n1-c1ccccc1)Nc1ccc(-c2nc3ccccc3s2)cc1",
    "measurement-target": "HS 578T breast",
    "label-class": "class 0"
  }
]

Where do the numbers come from? From PubChem BioAssay (NCI).
